Read-out: Tumor necrosis factor receptor 1 (TNFRSF1A), TNFRSF1A (gene 7132)
Experiment: LTEA_HepaRG_TNFRSF1A: Life Technologies and Expression Analysis (LTEA) Assay for Tumor necrosis factor receptor 1 (TNFRSF1A) using HepaRG (AID 2283535)
Conditions: mRNA level, 48 h; actives raise or lower the signal
The source made the active and inactive calls. How the source made its calls: active means hit-call score of the fitted dose curve at least 0.9, where 1 is the maximum; inactive means score below 0.9.
Assay readout: AC50

Some compounds with known AC50 results, for comparison:
Input line: Given the compound `CN(C)c1ccc(C(=C2C=CC(=[N+](C)C)C=C2)c2ccc(N(C)C)cc2)cc1` , what is its reported AC50?
Output line: 8.56 µM (active)

Input line: Likewise for `CCN(Cc1cccc(S(=O)(=O)O)c1)c1ccc(C(=C2C=CC(=[N+](CC)Cc3cccc(S(=O)(=O)O)c3)C=C2)c2ccccc2S(=O)(=O)[O-])cc1` ?
Output line: inactive

Input line: Try this compound too: `CN(C[C@@H](CC[N+]12CCC(C3CCCCC3)(CC1)CC2)c1ccc(Cl)c(Cl)c1)C(=O)c1cc(C(F)(F)F)cc(C(F)(F)F)c1`
Output line: inactive

Input line: Can you check `CC(C)(C)c1csc(-c2cc3cc(OCc4ccccc4CC(=O)O)ccc3o2)n1` next?
Output line: 83.2 µM (active)

Input line: Please answer likewise for `Oc1ccc2ccccc2c1`
Output line: inactive

Input line: Next up: `C[C@]12CC[C@@H]3c4ccc(O)cc4CC[C@H]3[C@@H]1CCC2=O`
Output line: inactive

New cases:
Input line: Report AC50 for `OCCO` please.
Output line: inactive

Input line: Another compound: `CC/C(=C(/CC)c1ccc(O)cc1)c1ccc(O)cc1`
Output line: 93.8 µM (active)

Input line: Same again, this time with `Clc1ccccc1C(c1ccccc1)(c1ccccc1)n1ccnc1`
Output line: inactive

Input line: Can you check `CCO[Si](CCCNC(N)=O)(OCC)OCC` next?
Output line: inactive

Input line: Another compound to look at: `Cc1ncc(CO)c(CO)c1O`
Output line: inactive

Input line: `CCCCOC(=O)CC(CC(=O)OCCCC)(OC(C)=O)C(=O)OCCCC` ?
Output line: inactive

Input line: What do you get for `COc1cccc([C@H](O)C2CCN(CCc3ccc(F)cc3)CC2)c1OC` ?
Output line: inactive

Input line: Further, for `Cc1occc1C(=O)Nc1ccc(C(=O)N2CCC(F)(F)/C(=C\C(=O)N3CCC(N4CCCCC4)CC3)c3ccccc32)cc1` ?
Output line: inactive

Input line: Now consider `O=C1O[C@H]([C@@H](O)CO)C(O)=C1O` and answer again.
Output line: inactive

Input line: Now try `c1ccc(C[n+]2cccc3ccccc32)cc1` .
Output line: 27.3 µM (active)

* * *

Read-out: Human Leukocyte Antigen - DR isotype (HLADR), HLA-DRA (gene 3122)
Assay: BSK_CASM3C_HLADR: BioMAP Diversity Plus: CASM3C Assay for Human Leukocyte Antigen - DR isotype (HLADR) Biomarker Activity (AID 2283043);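 further: cell-surface HLA-DR protein level quantified by ELISA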
Settings: primary human coronary artery smooth muscle cells; actives raise or lower the signal
Active and inactive are the calls of the source. The calls were made as follows: active = hit-call score of the fitted dose curve at least 0.9, where 1 is the maximum; inactive = score below 0.9.
Lab note: assign the record to one of 1 (yes) (active), 0 (no) (inactive)

Input line: Dear all, I need the recorded test outcome for `Cc1ncc(CO)c(CO)c1O` , thank you.
Output line: 0 (no)

Input line: // same read-out, input: `CN1C(=O)CC[C@H]1c1cccnc1`
Output line: 0 (no)

Input line: Next compound: `CCN(Cc1cccc(S(=O)(=O)O)c1)c1ccc(C(=C2C=CC(=[N+](CC)Cc3cccc(S(=O)(=O)O)c3)C=C2)c2ccccc2S(=O)(=O)[O-])cc1`
Output line: 0 (no)

Input line: Would you kindly repeat that for `Oc1ccccc1` ?
Output line: 0 (no)

Input line: Then this compound: `O=c1[nH]sc2ccccc12`
Output line: 1 (yes)

Input line: How about `O=c1c(-c2ccc(O)cc2)coc2cc(O)cc(O)c12` ?
Output line: 1 (yes)

Input line: Repeat with `CCCCCCCCCCCCO`
Output line: 1 (yes)
